Ref: the nanobody polyreactivity screen of Harvey et al. (2022)

experimentalDetails: yeast display, Sf9 membrane polyspecificity reagent, FACS + sequencing; frameworks hold sequencing errors
measurementLabel: polyreactivity (PSR sort gate)

Example results:
inputSequence | polyreactivity (PSR sort gate)
QVQLVESGGGLVQAGGSLRLSCAASGFTFTFNAMGWYRQAPGKERELVAGITSGTSTNYADSVKGRFTISRDNAKNTVYLQMNSLKPEDTAVYYCAADLYLTSGSQGVYVRYDYWGQGTQVTVSS | low polyreactivity
QVQLVDSGGGLVQAGGSLRLSCAASGLIFDSYDMGWYRQEPGKERELVSPIRRNGGSTYYADSVKGRFTISRDNAMYTVYLQMNSLKPEDTAVYYCAVDNSGYCGVYWVKMDYWGQGSQVTVSS | low polyreactivity
QVQLVESGGGLVQARGSLRLSCAASGFTFSDYVMGWYRQAPGKERELVAVITSGSSTYYADSVKGRFTISRDNAKNTVYLQMNSLKPEDTAVYYCNADPDDGYFSDFDYWGQGTQVTVSS | low polyreactivity
QVQLVESGVGLDQAGGSLRLSCAASGSTFFVNAMGWYRQAPGKEMELVAAISTSGGRTYYADSVKGRFRISRDNAKNNLYLQMKSLKPEDTAVYYGAAVSLSGGYGEYDYWGQGTKVTVSS | high polyreactivity

-- ask Could you share which polyreactivity (PSR sort gate) value was measured for QVQRVESGGGLVQAGGSLRLSCAASGGIFAVNVMGWYRPAPGKERELVAAITSTGSTYYADSVKGRFTISRDNAKNTVYLQMNSLKPEDTAVYYCAADYVYYDSYDDTVFGYEYWGQGTQVTVSS ?
-- reply high polyreactivity
